Values from paper PMC6151782

Measured melting point of individual entries

Clc1ccc(Cn2cc(CSc3nc4cc(Cl)ccc4s3)nn2)cc1 : 111 to 112 °C

Just so you know, measured melting point for Fc1ccc(Cn2cc(CSc3nc4cc(Cl)ccc4s3)nn2)cc1 came out at 108 to 109 °C

// recorded melting point for Fc1ccccc1Cn1cc(CSc2nc3ccccc3s2)nn1 : 86 to 88 °C

Entry Brc1ccc(Cn2cc(CSc3nc4ccccc4s3)nn2)cc1 , melting point reported as 112 to 114 °C

Noted for Brc1ccccc1Cn1cc(CSc2nc3ccccc3s2)nn1 : its melting point reads 104 to 106 °C

Measured melting point of Fc1ccccc1Cn1cc(CSc2nc3cc(Cl)ccc3s2)nn1 : 115 to 117 °C

The value of melting point measured for the compound Clc1ccc(Cn2cc(CSc3nc4ccccc4s3)nn2)cc1 turned out to be 119 to 120 °C

Value of measured melting point for the entry c1ccc(Cn2cc(CSc3nc4ccccc4s3)nn2)cc1 : 109 to 110 °C

Item: Clc1ccc2sc(SCc3cn(Cc4ccccc4Br)nn3)nc2c1 | melting point: 119 to 120 °C

Entry Clc1ccc2sc(SCc3cn(Cc4ccc(Br)cc4)nn3)nc2c1 ; melting point = 114 to 116 °C

// melting point value for Clc1ccc2sc(SCc3cn(Cc4ccccc4)nn3)nc2c1 : 142 to 144 °C

Measured melting point, Clc1ccccc1Cn1cc(CSc2nc3ccccc3s2)nn1 : 110 to 111 °C

The compound listed as Clc1ccc2sc(SCc3cn(Cc4ccccc4Cl)nn3)nc2c1 has a reported melting point of 128 to 130 °C

melting point for Fc1cccc(Cn2cc(CSc3nc4cc(Cl)ccc4s3)nn2)c1 is 140 to 141 °C

The compound listed as CC(C)(C)c1ccc(Cn2cc(CSc3nc4ccccc4s3)nn2)cc1 shows melting point equal to 77 to 78 °C

Measured melting point of Fc1cccc(Cn2cc(CSc3nc4ccccc4s3)nn2)c1 : 112 to 114 °C

Just so you know, measured melting point for Clc1cc(Cl)cc(Cn2cc(CSc3nc4cc(Cl)ccc4s3)nn2)c1 came out at 124 to 126 °C

###

Biological target: Baker’s yeast α-glucosidase enzyme (Saccharomyces cerevisiae)
Binarize IC50 at 30 µM; below is YES, at or above is NO.

Here are 5 compounds together with their reported answers.
Fc1ccc(Cn2cc(CSc3nc4cc(Cl)ccc4s3)nn2)cc1 : NO
Clc1ccccc1Cn1cc(CSc2nc3ccccc3s2)nn1 : NO
Clc1cc(Cl)cc(Cn2cc(CSc3nc4cc(Cl)ccc4s3)nn2)c1 : YES
Brc1ccccc1Cn1cc(CSc2nc3ccccc3s2)nn1 : NO
Brc1ccc(Cn2cc(CSc3nc4ccccc4s3)nn2)cc1 : YES

In: Consider c1ccc(Cn2cc(CSc3nc4ccccc4s3)nn2)cc1 . Does its IC50 lie strictly below 30 µM?
Out: NO

In: Given Fc1cccc(Cn2cc(CSc3nc4cc(Cl)ccc4s3)nn2)c1 , is recorded IC50 strictly lower than 30 µM?
Out: NO

###

Target: Baker’s yeast α-glucosidase enzyme (Saccharomyces cerevisiae, UniProt P53341)
Sequence (P53341 whole entry): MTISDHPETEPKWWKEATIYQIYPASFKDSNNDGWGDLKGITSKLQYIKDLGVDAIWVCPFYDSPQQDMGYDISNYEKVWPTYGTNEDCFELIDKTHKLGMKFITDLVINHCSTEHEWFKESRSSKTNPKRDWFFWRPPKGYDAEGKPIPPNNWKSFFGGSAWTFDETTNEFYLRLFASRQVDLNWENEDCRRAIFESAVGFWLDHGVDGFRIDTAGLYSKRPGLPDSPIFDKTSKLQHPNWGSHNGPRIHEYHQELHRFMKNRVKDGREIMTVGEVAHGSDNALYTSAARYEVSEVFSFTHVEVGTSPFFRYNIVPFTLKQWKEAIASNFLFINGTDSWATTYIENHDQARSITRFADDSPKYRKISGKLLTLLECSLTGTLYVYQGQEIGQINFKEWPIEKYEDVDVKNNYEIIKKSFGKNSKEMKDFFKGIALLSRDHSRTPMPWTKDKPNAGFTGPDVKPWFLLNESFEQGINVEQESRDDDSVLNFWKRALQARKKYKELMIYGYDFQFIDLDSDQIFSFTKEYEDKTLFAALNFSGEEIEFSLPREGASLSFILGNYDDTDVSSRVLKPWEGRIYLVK
Response field class: string, computed from recorded IC50 by ranges group 1: < 30 µM; group 2: ≥ 30 µM and < 50 µM; group 3: ≥ 50 µM

Clc1ccc2sc(SCc3cn(Cc4ccc(Br)cc4)nn3)nc2c1 : group 1
Fc1ccccc1Cn1cc(CSc2nc3ccccc3s2)nn1 : group 3
Clc1ccc2sc(SCc3cn(Cc4ccccc4Cl)nn3)nc2c1 : group 2

In: Which band does Clc1ccc(Cn2cc(CSc3nc4cc(Cl)ccc4s3)nn2)cc1 fall in?
Out: group 1

In: Please indicate the class for Clc1ccc(Cn2cc(CSc3nc4ccccc4s3)nn2)cc1 based on its IC50.
Out: group 1

In: Bin? Clc1ccc2sc(SCc3cn(Cc4ccccc4)nn3)nc2c1
Out: group 2
